Reference source for all entries: the NIST ThermoML archive (doi:10.1016/j.fluid.2011.06.001)

conditions: 308.15 K; Liquid; Closed cell (Static) method
Criterion: vapor or sublimation pressure strictly under 30 kPa. Met: yes. Not met: no.

CCCCCl ... yes
CC(C)(C)Cl ... no

// switching to the query molecule
Request: Is the reported vapor or sublimation pressure for CCC(C)Cl (stereo not given) strictly below 30 kPa?
Result: no

----------
settings: 298.15 K; Liquid; Closed cell (Static) method
Numbers after ± are expanded uncertainties.
Provide the recorded vapor or sublimation pressure for the entries that follow.
Dear colleague, please send the value followed by its unit.

Give vapor or sublimation pressure for each of the items listed below.
1. CCC(C)Cl (stereo not given) [2-chlorobutane]
2. CC(C)OC(C)C [diisopropyl ether]

Result:
1: 20.91 ± 0.049 kPa; 2: 20 ± 0.047 kPa

Give vapor or sublimation pressure for each of the items listed below.
1. CC(C)(C)Cl [2-chloro-2-methylpropane]
2. CCCCCl [1-chlorobutane]
3. CC(C)CCl [1-chloro-2-methylpropane]

Result:
["40.13 ± 0.087 kPa", "13.52 ± 0.034 kPa", "20.35 ± 0.048 kPa"]
